The entries below come with measured Enzyme degradation CDK2 (% remaining) @ 10 μM values attached.
assayed system: CDK2 (Homo sapiens)
Construct: endogenous in cells; host or cells: MDA-MB-231
method notes: CDK protein degradation activity (Western blotting), CDK2
Assay type: cell-based
assay conditions: MDA-MB-231 cells, 10 μM, 16 hours, Western blot
metric name: Enzyme degradation CDK2 (% remaining) @ 10 μM (%)

molecule	readout units	reported value
O=C1CC[C@H](N2C(=O)c3ccc(N4CC(C(=O)N5CCC6(CC5)CC(N5CCN(c7ccc(Nc8ncnc9c8ncn9[C@H]8C[C@@H](NC(=O)Cc9ccccc9)C8)cc7)CC5)C6)C4)cc3C2=O)C(=O)N1	%	70
O=C1CC[C@H](N2C(=O)c3cc(F)c(N4CCC(C(=O)N5CCC6(CC5)CC(N5CCN(c7ccc(Nc8ncnc9c8ncn9C8CC(NC(=O)c9c(Cl)cccc9Cl)C8)cc7)CC5)C6)CC4)cc3C2=O)C(=O)N1 (some centres unmarked)	%	30
O=C1CC[C@H](N2C(=O)c3ccc(N4CCN(CCCC5CCN(c6ccc(Nc7ncnc8c7ncn8C7CC(NC(=O)Cc8ccccc8)C7)cc6)CC5)CC4)cc3C2=O)C(=O)N1 (some centres unmarked)	%	0

* * *

assayed system: CDK2 (Homo sapiens, UniProt P24941)
Construct: endogenous in cells; host or cells: MDA-MB-231
method notes: CDK protein degradation activity (Western blotting), CDK2
Assay type: cell-based
assay conditions: MDA-MB-231 cells, 1 μM, 16 hours, Western blot
The entries below come with measured Enzyme degradation CDK2 (% remaining) @ 1 μM values attached.
metric name: Enzyme degradation CDK2 (% remaining) @ 1 μM (%)

compound	reported value
Cc1cccc(C(=O)N[C@H]2C[C@@H](n3cnc4c(NC5CCN(CCCCCCNc6ccc7c(c6)C(=O)N([C@H]6CCC(=O)NC6=O)C7=O)CC5)ncnc43)C2)n1	100
Cc1cccc(C(=O)N[C@H]2C[C@H](n3cnc4c(NCC5CCN(CC6CCN(C(=O)CNc7ccc8c(c7)C(=O)N(C7CCC(=O)NC7=O)C8=O)CC6)CC5)ncnc43)C2)n1 (stereo partly drawn)	40
O=C1CC[C@H](n2nnc3ccc(N4CCC(CCCN5CCN(c6ccc(Nc7ncnc8c7ncn8C7CC(NC(=O)Cc8ccccc8)C7)cc6)CC5)CC4)cc3c2=O)C(=O)N1 (stereo partly drawn)	10

* * *

assayed system: CDK2 (Homo sapiens)
Construct: endogenous in cells; host or cells: MDA-MB-231
method notes: CDK protein degradation activity (Western blotting), CDK2
Type: cell-based
assay conditions: MDA-MB-231 cells, 1 μM, 16 hours, Western blot
metric name: Enzyme degradation CDK2 (% remaining) @ 1 μM (%)

compound	reported value
Cc1cccc(C(=O)NC2CC(n3cnc4c(NCCC5CCN(CC6CCN(c7ccc8nnn([C@H]9CCC(=O)NC9=O)c(=O)c8c7)CC6)CC5)ncnc43)C2)n1 (stereo partly shown)	30
Cc1cccc(C(=O)N[C@H]2C[C@@H](n3cnc4c(NCc5cccc(OCC6CCN(C(=O)COc7ccc8c(c7)C(=O)N([C@H]7CCC(=O)NC7=O)C8=O)CC6)c5)ncnc43)C2)n1	60
Cc1cccc(C(=O)N[C@H]2C[C@@H](n3cnc4c(NC5CCN(CCOC6CCN(C(=O)CNc7ccc8c(c7)C(=O)N(C7CCC(=O)NC7=O)C8=O)CC6)CC5)ncnc43)C2)n1 (stereo partly shown)	60
O=C1CCC(N2C(=O)c3cccc(NCC(=O)N4CCC(CN5CCC(c6ccc(Nc7ncnc8c7ncn8[C@H]7C[C@@H](NC(=O)Cc8ccccc8)C7)cc6)CC5)CC4)c3C2=O)C(=O)N1 (stereo partly shown)	20
O=C1CC[C@H](N2C(=O)c3ccc(N4CCC(C(=O)N5CCN(CCCC6CCN(c7ccc(Nc8ncnc9c8ncn9[C@H]8C[C@@H](NC(=O)Cc9ccccc9)C8)cc7)CC6)CC5)CC4)cc3C2=O)C(=O)N1	0
Cc1cccc(C(=O)NC2CC(n3cnc4c(NC5CCN(C(=O)CC6CCN(C(=O)CNc7ccc8c(c7)C(=O)N([C@H]7CCC(=O)NC7=O)C8=O)CC6)CC5)ncnc43)C2)n1 (stereo partly shown)	20
Cc1cccc(C(=O)NC2CC(n3cnc4c(NCCC5CCN(CC6CCN(C(=O)C7CN(c8ccc9c(c8)C(=O)N([C@H]8CCC(=O)NC8=O)C9=O)C7)CC6)CC5)ncnc43)C2)n1 (stereo partly shown)	80

* * *

assayed system: CDK2 (Homo sapiens)
Construct: endogenous in cells; host or cells: MDA-MB-231
method notes: CDK protein degradation activity (Western blotting), CDK2
Format: cell-based
assay conditions: MDA-MB-231 cells, 0.1 μM, 16 hours, Western blot
metric name: Enzyme degradation CDK2 (% remaining) @ 0.1 μM

molecule	reported value
Cc1cccc(C(=O)NC2CC(n3cnc4c(Nc5ccc(N6CCN(C7CC8(CCN(c9ccc%10c(c9)C(=O)N([C@H]9CCC(=O)NC9=O)C%10=O)CC8)C7)CC6)cc5)ncnc43)C2)n1 (stereo partly drawn)	20/20/20%
O=C1CCC(c2cccc(OCC(=O)N3CCC4(CC(N5CCN(c6ccc(Nc7ncnc8c7ncn8[C@H]7C[C@@H](NC(=O)Cc8ccccc8)C7)cc6)CC5)C4)C3)c2)C(=O)N1 (stereo partly drawn)	10/10/10%
O=C1CC[C@H](N2C(=O)c3cc(F)c(N4CCC(C(=O)N5CCC(CN6CCN(c7ccc(Nc8ncnc9c8ncn9C8CC(NC(=O)c9cccc(Cl)n9)C8)cc7)CC6)CC5)CC4)cc3C2=O)C(=O)N1 (stereo partly drawn)	20%

* * *

assayed system: CDK2 (Homo sapiens)
Construct: endogenous in cells; host or cells: MDA-MB-231
method notes: CDK protein degradation activity (Western blotting), CDK2
Format: cell-based
assay conditions: MDA-MB-231 cells, 10 μM, 16 hours, Western blot
The entries below come with measured Enzyme degradation CDK2 (% remaining) @ 10 μM values attached.
metric name: Enzyme degradation CDK2 (% remaining) @ 10 μM

molecule	assayed system	reported value
O=C1CC[C@H](n2nnc3ccc(N4CCC(N5CCN(c6ccc(Nc7ncnc8c7ncn8[C@H]7C[C@@H](NC(=O)Cc8ccccc8)C7)cc6)CC5)CC4)cc3c2=O)C(=O)N1	CDK2 (Homo sapiens)	50%
O=C1CCC(N2C(=O)c3cccc(NCC(=O)N4CCC5(CC4)CC(N4CCC(c6ccc(Nc7ncnc8c7ncn8[C@H]7C[C@@H](NC(=O)Cc8ccccc8)C7)cc6)CC4)C5)c3C2=O)C(=O)N1 (some centres unmarked)	CDK2 (Homo sapiens)	10/10/10%
Cc1cccc(C(=O)NC2CC(n3cnc4c(NCCC5CCN(CC6CCN(C(=O)C7CCN(c8ccc9c(c8)C(=O)N([C@H]8CCC(=O)NC8=O)C9=O)CC7)CC6)CC5)ncnc43)C2)n1 (some centres unmarked)	CDK2 (Homo sapiens)	60%
Cc1cccc(C(=O)NC2CC(n3cnc4c(Nc5ccc(N6CCN(CCC7CCN(C(=O)C8CN(c9ccc%10c(c9)C(=O)N([C@H]9CCC(=O)NC9=O)C%10=O)C8)CC7)CC6)cc5)ncnc43)C2)n1 (some centres unmarked)	CDK2 (Homo sapiens)	40/40/40%
N#Cc1cccc(C(=O)NC2CC(n3cnc4c(Nc5ccc(N6CCN(CC7CCN(C(=O)C8CN(c9ccc%10c(c9)C(=O)N([C@H]9CCC(=O)NC9=O)C%10=O)C8)CC7)CC6)cc5)ncnc43)C2)n1 (some centres unmarked)	CDK2 (Homo sapiens)	10%

* * *

assayed system: CDK9 (Homo sapiens)
Construct: endogenous in cells; host or cells: MDA-MB-231
Sequence (P50750 whole entry): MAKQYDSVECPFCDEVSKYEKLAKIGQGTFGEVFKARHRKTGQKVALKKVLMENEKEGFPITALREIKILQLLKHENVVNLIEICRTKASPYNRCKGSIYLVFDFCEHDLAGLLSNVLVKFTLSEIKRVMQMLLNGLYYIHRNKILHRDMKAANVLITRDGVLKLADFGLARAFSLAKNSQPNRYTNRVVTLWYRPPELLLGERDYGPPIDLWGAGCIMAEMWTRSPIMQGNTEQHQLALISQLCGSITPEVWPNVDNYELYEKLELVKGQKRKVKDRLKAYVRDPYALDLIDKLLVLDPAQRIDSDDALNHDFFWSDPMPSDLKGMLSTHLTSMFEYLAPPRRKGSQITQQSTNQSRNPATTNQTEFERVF
method notes: CDK protein degradation activity (Western blotting), CDK9
Assay type: cell-based
assay conditions: MDA-MB-231 cells, 0.1 μM, 16 hours, Western blot
The entries below come with measured Enzyme degradation CDK9 (% remaining) @ 0.1 μM values attached.
metric name: Enzyme degradation CDK9 (% remaining) @ 0.1 μM

compound	reported value
Cc1cccc(C(=O)N[C@H]2C[C@@H](n3cnc4c(Nc5ccc(N6CCN(CC7CCN(C(=O)COc8ccc9c(c8)C(=O)N([C@H]8CCC(=O)NC8=O)C9=O)CC7)CC6)cc5)ncnc43)C2)n1 [Compound 90]	0/0/0%
COc1ccc(C(=O)NC[C@H]2CC[C@H](CN3CCN(c4ccc(Nc5ncnc6c5ncn6[C@H]5C[C@@H](NC(=O)Cc6ccccc6)C5)cc4)CC3)CC2)cc1N1CCC(=O)NC1=O [Compound 198]	50%
O=C1CC[C@@H](c2ccc(OCC(=O)N3CCC(CCCN4CCN(c5ccc(Nc6ncnc7c6ncn7[C@H]6C[C@@H](NC(=O)Cc7ccccc7)C6)cc5)CC4)CC3)cc2)C(=O)N1 [Compound 258]	20%
Cc1cccc(C(=O)NC2CC(n3cnc4c(NCCCN5CCN(CC6CCN(C(=O)COc7ccc8c(c7)C(=O)N([C@@H]7CCC(=O)NC7=O)C8=O)CC6)CC5)ncnc43)C2)n1 (stereo partly shown) [Compound 144]	80%
O=C1CCC(c2ccc(OCC(=O)N3CC(CN4CCC5(CC4)CC(N4CCN(c6ccc(Nc7ncnc8c7ncn8[C@H]7C[C@@H](NC(=O)Cc8ccccc8)C7)cc6)CC4)C5)C3)cc2)C(=O)N1 (stereo partly shown) [Compound 275]	70%
Cc1cccc(C(=O)NC2CC(n3cnc4c(NCCC5CCN(CC6CCN(c7cccc8c7C(=O)N([C@H]7CCC(=O)NC7=O)C8=O)CC6)CC5)ncnc43)C2)n1 (stereo partly shown) [Compound 306]	30%
O=C1CC[C@H](N2C(=O)c3ccc(N4CCN(C5CC6(CCN(c7ccc(Nc8ncnc9c8ncn9[C@H]8C[C@@H](NC(=O)Cc9ccccc9)C8)cc7)CC6)C5)CC4)cc3C2=O)C(=O)N1 [Compound 335]	70%
Cc1cccc(C(=O)NC2CC(n3cnc4c(NCc5cccc(N6CCN(CC7CCN(C(=O)CNc8ccc9c(c8)C(=O)N([C@H]8CCC(=O)NC8=O)C9=O)CC7)CC6)c5)ncnc43)C2)n1 (stereo partly shown) [Compound 135]	0/0/0%
O=C1CC[C@H](N2C(=O)c3ccc(NCC(=O)N4CCN(CCCN5CCN(c6ccc(Nc7ncnc8c7ncn8C7CC(NC(=O)Cc8ccccc8)C7)cc6)CC5)CC4)cc3C2=O)C(=O)N1 (stereo partly shown) [Compound 233]	40%
O=C1CC[C@H](N2C(=O)c3cccc(OCC(=O)N4CCC(OCCN5CCN(c6ccc(Nc7ncnc8c7ncn8C7CC(NC(=O)Cc8ccccc8)C7)cc6)CC5)CC4)c3C2=O)C(=O)N1 (stereo partly shown) [Compound 246]	80%
O=C1CC[C@H](N2C(=O)c3ccc(NCC(=O)N4CCC(CN5CCC(c6ccc(Nc7ncnc8c7ncn8C7CC(NC(=O)Cc8ccccc8)C7)cc6)CC5)CC4)cc3C2=O)C(=O)N1 (stereo partly shown) [Compound 290]	10%
Cc1cccc(C(=O)N[C@H]2C[C@@H](n3cnc4c(NCc5ccc(OCCCN6CCN(C(=O)CNc7cccc8c7C(=O)N([C@H]7CCC(=O)NC7=O)C8=O)CC6)cc5)ncnc43)C2)n1 [Compound 115]	0/0/0%
O=C1CC[C@H](N2C(=O)c3cccc(NCC(=O)N4CCN(CC5CCN(c6ccc(Nc7ncnc8c7ncn8[C@H]7C[C@@H](NC(=O)c8c(Cl)cccc8Cl)C7)cc6)CC5)CC4)c3C2=O)C(=O)N1 [Compound 311]	10%
O=C1CC[C@H](N2C(=O)C=C(N3CCC(C(=O)N4CCC(CN5CCN(c6ccc(Nc7ncnc8c7ncn8[C@H]7C[C@@H](NC(=O)Cc8ccccc8)C7)cc6)CC5)CC4)CC3)C2=O)C(=O)N1 [Compound 189]	0/0/0%
O=C1CCN(c2coc3cc(C(=O)N4CCC(CN5CCN(c6ccc(Nc7ncnc8c7ncn8[C@H]7C[C@@H](NC(=O)Cc8ccccc8)C7)cc6)CC5)CC4)ccc23)C(=O)N1 [Compound 187]	10%
Cc1cccc(C(=O)NC2CC(n3cnc4c(Nc5ccc(N6CCN(CC7CCN(C(=O)C8CCN(c9ccc%10c(c9)C(=O)N([C@H]9CCC(=O)NC9=O)C%10=O)CC8)CC7)CC6)cc5)ncnc43)C2)n1 (stereo partly shown) [Compound 379]	0/0/0%
Cc1cccc(C(=O)N[C@H]2C[C@@H](n3cnc4c(NCCC5CCN(CC6CCN(C(=O)C7CCN(c8cc9c(cc8F)C(=O)N(C8CCC(=O)NC8=O)C9=O)CC7)CC6)CC5)ncnc43)C2)n1 (stereo partly shown) [Compound 450]	0/0/0%
O=C1CC[C@H](N2C(=O)c3ccc(N4CCN(CCC5CCN(c6ccc(Nc7ncnc8c7ncn8[C@H]7C[C@@H](NC(=O)Cc8ccccc8)C7)cc6)CC5)CC4)cc3C2=O)C(=O)N1 [Compound 338]	50%
Cc1cccc(C(=O)NC2CC(n3cnc4c(NCc5ccc(OCC6CCN(C(=O)COc7cccc8c7C(=O)N([C@H]7CCC(=O)NC7=O)C8=O)CC6)cc5)ncnc43)C2)n1 (stereo partly shown) [Compound 107]	90%
